Each recorded value in this set is attributed to ChEMBL document CHEMBL1201862.

We begin with a simple list: items and their reported EC50.
biological target: Streptokinase A (Streptococcus pyogenes serotype M1, UniProt P10520); assay: viability-normalized secreted streptokinase activity reduction – plasminogen activation absorbance, OD405, dose response (AID 1914); assay type: functional, Streptococcus pyogenes M1 GAS;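 further: secreted streptokinase activity via plasminogen activation per viability signal from cell pellet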
Sequence (P10520 whole entry): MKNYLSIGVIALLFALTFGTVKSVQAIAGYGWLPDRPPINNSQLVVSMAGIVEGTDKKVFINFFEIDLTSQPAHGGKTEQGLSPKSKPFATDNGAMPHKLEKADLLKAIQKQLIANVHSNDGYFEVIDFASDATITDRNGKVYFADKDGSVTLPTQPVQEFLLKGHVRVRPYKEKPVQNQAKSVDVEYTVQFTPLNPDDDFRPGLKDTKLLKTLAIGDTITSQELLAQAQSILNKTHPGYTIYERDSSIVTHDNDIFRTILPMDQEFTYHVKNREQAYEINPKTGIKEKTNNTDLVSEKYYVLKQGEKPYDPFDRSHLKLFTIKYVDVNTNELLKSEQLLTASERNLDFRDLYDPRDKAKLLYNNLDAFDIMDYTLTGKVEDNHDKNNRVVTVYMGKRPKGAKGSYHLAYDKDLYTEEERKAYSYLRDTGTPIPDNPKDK
The source made the active and inactive calls. No stated cut-off is given here; in the data, actives have a measured EC50 and inactives only a lower limit.
metric: EC50

compound=Cc1ccc(Cl)cc1NC1=C/C(=N\S(=O)(=O)c2cccs2)c2ccccc2C1=O metric=EC50 result="> 150 µM (not active)"
compound=O=C(O)CSCC(=O)N(Cc1ccccc1)c1nc(-c2ccccc2)c(-c2ccccc2)s1 metric=EC50 result="2.81 µM (active)"
compound=Cn1ncc2c(Nc3ccc(Cl)c(Cl)c3)ncnc21 metric=EC50 result="> 150 µM (not active)"
compound=Cc1ccccc1OCC(=O)NC(=S)Nc1ccc(Br)c(C)n1 metric=EC50 result="57.1 µM (active)"
compound="SC1=NC(C23CC4CC(CC(C4)C2)C3)=CC(c2ccc3c(c2)OCO3)N1 (configuration not stated)" metric=EC50 result="22.5 µM (active)"
compound=Cc1ccc(NC(=O)c2cccc(OCc3c(C)noc3C)c2)cc1S(=O)(=O)Nc1ccccc1Cl metric=EC50 result="> 150 µM (not active)"
compound=COc1ccc2oc(C(=O)Nc3nc4ccccc4[nH]3)c(C)c2c1 metric=EC50 result="> 150 µM (not active)"
compound=CCCCCCCCCCCCN1[C@@H](CC(=O)O)c2cc(C(F)(F)F)ccc2S1(=O)=O metric=EC50 result="2.28 µM (active)"
compound=Cc1cccc(CSc2nc(N)c(C#N)c(-c3cccs3)c2C#N)c1 metric=EC50 result="4.93 µM (active)"
compound=CCc1sc(N(C(=O)Cc2ccccc2)c2cccc(F)c2)nc1-c1ccc(C)cc1 metric=EC50 result="32.6 µM (active)"
compound="CC1(C)Cc2c(cnn2-c2ccccc2)C(NC(=O)CCCN2CCCC2=O)C1 (configuration not stated)" metric=EC50 result="> 150 µM (not active)"
compound=COc1cnc(-c2ccccn2)nc1Oc1c(C)cccc1C metric=EC50 result="> 150 µM (not active)"
